This listing pairs binders with measured pSTAT3 (MFI) in monocytes at 0.01 µM.
# study-target: T1, IL10Rα and IL2Rγ on human primary cells (CD8 T cells, CD4 T cells, monocytes) (human) (UniProt Q13651)
# T1 sequence (looked up) 1: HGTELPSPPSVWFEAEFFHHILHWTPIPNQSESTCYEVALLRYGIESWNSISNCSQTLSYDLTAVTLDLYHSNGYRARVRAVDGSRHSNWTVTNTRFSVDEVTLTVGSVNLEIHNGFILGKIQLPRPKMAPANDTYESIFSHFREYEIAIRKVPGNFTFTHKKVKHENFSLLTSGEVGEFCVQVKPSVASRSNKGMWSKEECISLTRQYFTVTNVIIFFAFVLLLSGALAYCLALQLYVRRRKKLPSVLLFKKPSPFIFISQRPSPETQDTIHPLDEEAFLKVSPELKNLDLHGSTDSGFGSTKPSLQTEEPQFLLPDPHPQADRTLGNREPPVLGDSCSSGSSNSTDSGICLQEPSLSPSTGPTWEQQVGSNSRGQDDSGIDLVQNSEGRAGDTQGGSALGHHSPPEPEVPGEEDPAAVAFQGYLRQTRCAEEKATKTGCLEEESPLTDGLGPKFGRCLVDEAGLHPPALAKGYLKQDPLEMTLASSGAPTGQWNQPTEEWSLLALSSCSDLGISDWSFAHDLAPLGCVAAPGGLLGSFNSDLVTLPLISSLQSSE
# T1 sequence (looked up) 2: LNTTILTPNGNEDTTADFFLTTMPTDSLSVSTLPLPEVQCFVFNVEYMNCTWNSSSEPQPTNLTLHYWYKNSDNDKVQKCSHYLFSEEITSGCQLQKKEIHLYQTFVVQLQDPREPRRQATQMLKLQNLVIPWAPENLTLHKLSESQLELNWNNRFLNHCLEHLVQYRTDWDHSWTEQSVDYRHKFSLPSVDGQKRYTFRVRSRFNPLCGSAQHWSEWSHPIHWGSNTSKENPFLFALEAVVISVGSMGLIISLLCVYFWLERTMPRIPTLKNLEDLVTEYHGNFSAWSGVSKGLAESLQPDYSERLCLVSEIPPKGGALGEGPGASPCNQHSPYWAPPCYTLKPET
# test-method-notes: cell-based or functional assay
Give a bare numeral; the unit MFI is implied.

(Q) Please look at this binder and report its pSTAT3 (MFI) in monocytes at 0.01 µM: hIL10Ra_VHH14-hIL2Rg_VHH19, linker GGSGGS, tag his (bispecific antibody, not shown: small tags and cut ends) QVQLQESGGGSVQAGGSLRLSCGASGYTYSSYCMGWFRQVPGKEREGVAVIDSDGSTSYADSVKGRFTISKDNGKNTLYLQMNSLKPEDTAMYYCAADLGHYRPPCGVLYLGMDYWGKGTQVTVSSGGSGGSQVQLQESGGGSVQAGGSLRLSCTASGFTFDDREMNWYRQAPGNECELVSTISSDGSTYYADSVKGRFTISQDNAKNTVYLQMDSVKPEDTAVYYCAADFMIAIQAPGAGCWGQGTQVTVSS
(A) 4560

(Q) Provide one value: measured pSTAT3 (MFI) in monocytes at 0.01 µM of hIL10Ra_VHH14-hIL2Rg_VHH19, linker GGGS, tag Fc (Fc fusion, not shown: a dimerising Fc or GST) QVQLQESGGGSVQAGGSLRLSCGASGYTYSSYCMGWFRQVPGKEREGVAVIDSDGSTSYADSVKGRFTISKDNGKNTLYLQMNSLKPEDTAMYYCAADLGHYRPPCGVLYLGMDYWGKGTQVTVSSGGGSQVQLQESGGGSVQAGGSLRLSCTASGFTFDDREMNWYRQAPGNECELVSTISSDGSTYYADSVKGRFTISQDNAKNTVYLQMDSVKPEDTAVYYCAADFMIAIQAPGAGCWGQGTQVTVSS
(A) 4420
